B1: INTS4 (parent)
chain: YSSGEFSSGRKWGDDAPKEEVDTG

- Variants of: B1
- experimental_details: protein stability index of a GFP-peptide fusion (GPS, HEK-293T) (PSI 1-6); higher = more stable;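 note: lentivirally expressed fusions sorted by FACS into six bins by GFP to DsRed ratio, PSI derived from sequencing read proportions per bin multiplied by bin number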
- recorded_conditions: c terminus: a fixed tail appended
Tag: MET if measured protein stability index is not below 2, NOT MET if it is.

Task: Would you say A16Q shows protein stability index at minimum 2?
Result: MET

Task: Would you say A16I shows protein stability index at minimum 2?
Result: MET

Task: Would you say E20P shows protein stability index at minimum 2?
Result: MET

Task: Would you say P17F shows protein stability index at minimum 2?
Result: MET

Task: Would you say D15S shows protein stability index at minimum 2?
Result: MET

Task: Would you say G9I shows protein stability index at minimum 2?
Result: NOT MET

Task: Would you say A16D shows protein stability index at minimum 2?
Result: MET

Task: Would you say V21P shows protein stability index at minimum 2?
Result: MET

Task: Would you say S8I shows protein stability index at minimum 2?
Result: NOT MET

Task: Would you say G9E shows protein stability index at minimum 2?
Result: MET
